Experiment: Pharmacokinetics after intravenous and oral administration in rats
Type: in vivo
Conditions: iv dosing, dose 1 mg/kg
Readout kind: Clearance (CL) after iv dosing (mL/min/kg)

>  <Compound>
Cn1cc(Nc2ncc(Cl)c(NC3CCC4(CC3)CCN(CC(C)(C)O)CC4)n2)cn1

>  <Readout kind>
Clearance (CL) after iv dosing

>  <Measurement>
109

$$$$
>  <Compound>
CC(O)Cn1cc(Nc2ncc(Cl)c(NC3CC4CN(S(C)(=O)=O)CC4C3)n2)cn1 (stereo not shown)

>  <Readout kind>
Clearance (CL) after iv dosing

>  <Measurement>
62.8

$$$$
>  <Compound>
CC(O)Cn1cc(Nc2ncc(Cl)c(NC3CC4CN(S(=O)(=O)C5CC5)CC4C3)n2)cn1 (stereo not shown)

>  <Readout kind>
Clearance (CL) after iv dosing

>  <Measurement>
60.8

$$$$
>  <Compound>
CC(O)Cn1cc(Nc2ncc(Cl)c(NC3CC4CN(S(=O)(=O)NC5CC5)CC4C3)n2)cn1 (stereo not shown)

>  <Readout kind>
Clearance (CL) after iv dosing

>  <Measurement>
69.3

$$$$

Ref: patent US9938257B2
